Assignment: determine reported inhibition for the given compounds.
Molecular target: Tubulin (Homo sapiens) (UniProt P68371+Q9H4B7+P0DPH7+P68366+Q13509+Q71U36+P04350+Q3ZCM7+P07437+P68363+Q9BQE3+Q6PEY2+Q13885+Q9BVA1+Q9BUF5)
Test: Inhibition of tubulin (unknown origin) polymerization at 10 uM relative to control
Type: protein-complex assay
Write down the numeric answer in % and omit the unit.

INPUT: Look up and report measured inhibition for this entry: COc1cc(-c2nnc(SCC(=O)N(C)c3ccc(C)cc3)n2N)cc(OC)c1OC
OUTPUT: 21

INPUT: Specify measured inhibition for CCc1ccc(NC(=O)CSc2nnc(-c3cc(OC)c(OC)c(OC)c3)n2N)cc1 .
OUTPUT: 38

INPUT: Look up and state reported inhibition for COc1ccccc1NC(=O)CSc1nnc(-c2cc(OC)c(OC)c(OC)c2)n1N
OUTPUT: 25

INPUT: Provide measured inhibition value, entry: COc1cc(-c2nnc(SCC(=O)Nc3ccc(C)c(C)c3)n2N)cc(OC)c1OC
OUTPUT: 18

INPUT: Give a short answer stating reported inhibition for COc1cc(-c2nnc(SCC(=O)Nc3cccc(C)c3)n2N)cc(OC)c1OC .
OUTPUT: 25

INPUT: Please supply the value of reported inhibition for the item CCCc1ccc(NC(=O)CSc2nnc(-c3cc(OC)c(OC)c(OC)c3)n2N)cc1
OUTPUT: 19

INPUT: State its inhibition for this compound: CCc1ccc(NC(=O)CSc2nnc(-c3cc(OC)c(OC)c(OC)c3)[nH]2)cc1
OUTPUT: 11

INPUT: Given COc1cc(-c2nnc(SCC(=O)Nc3ccc(C)cc3)n2-n2cccc2)cc(OC)c1OC , respond with its inhibition.
OUTPUT: 17

INPUT: Give the measured inhibition for COc1cc(-c2nnc(SCC(=O)Nc3ccc(C)cc3)n2N)cc(OC)c1OC
OUTPUT: 55

INPUT: Give inhibition for the following compound: COc1ccc(NC(=O)CSc2nnc(-c3cc(OC)c(OC)c(OC)c3)n2N)cc1
OUTPUT: 24

* * *

Test system: HeLa
Assay: Cytotoxicity against human HeLa cells assessed as inhibition of cell growth after 48 hrs by MTT assay
Type: functional, cell-based
Would you mind telling me the reported pIC50 of each entry?
Note: pIC50 values are expressed as the negative base-10 logarithm of concentration in M.

INPUT: Specify pIC50 for COc1cc(-c2nnc(SCC(=O)Nc3ccc(C)cc3F)n2N)cc(OC)c1OC and stop.
OUTPUT: 7.40

INPUT: Return reported pIC50. Input molecule: COc1ccc(NC(=O)CSc2nnc(-c3cc(OC)c(OC)c(OC)c3)n2N)cc1
OUTPUT: 5.53

INPUT: Read off the recorded pIC50 for COc1cc(-c2nnc(SCC(=O)Nc3ccc(C(C)C)cc3)n2N)cc(OC)c1OC
OUTPUT: 4.86

INPUT: Please report the measured pIC50 for CCCc1ccc(NC(=O)CSc2nnc(-c3cc(OC)c(OC)c(OC)c3)n2N)cc1
OUTPUT: 4.73

INPUT: Annotate the molecule COc1ccc(NC(=O)CSc2nnc(-c3cc(OC)c(OC)c(OC)c3)n2N)cc1OC with its measured pIC50.
OUTPUT: 4.27

INPUT: Specify measured pIC50 for COc1cc(-c2nnc(SCC(=O)Nc3ccc(N(C)C)cc3)n2N)cc(OC)c1OC .
OUTPUT: 4.62

INPUT: Tell us which pIC50 value is on record for COc1cc(-c2nnc(SCC(=O)Nc3cccc(C)c3)n2N)cc(OC)c1OC
OUTPUT: 5.53
